# System: SEM cells
# test.protocol: cell viability relative to DMSO control; higher = less cytotoxic
# assay.context: RPMI 5 mM glucose + 10% dialyzed FBS; 48 h; 5.12 µM
Hi! Just check whether cell viability is below 90%. Below gives Condition met, equal or above gives Condition not met.

molecule	label.class
COc1cc2c(cc1OC)CC(=O)N(CCCN(C)C[C@H]1Cc3cc(OC)c(OC)cc31)CC2.Cl	Condition not met
CN(NC(=O)CC(=O)NN(C)C(=S)c1ccccc1)C(=S)c1ccccc1	Condition met
COCCCN1CCC(NC(=O)c2cc(Cl)c(N)c3c2OCC3)CC1	Condition not met
O=C(O)C1=NC(C(=O)O)CC(/C=C/N2c3cc(O)c(OC4OC(CO)C(O)C(O)C4O)cc3CC2C(=O)O)=C1 (centres undefined)	Condition not met
C[S+]([O-])(=O)C1=CC=C(C=C1)C/2=C(/C(=O)OC2)C3=CC=CC=C3	Condition not met
O=C(Nc1cc2cc[nH]c2cn1)c1ccccc1	Condition met

Prompt line: cell viability strictly < 90% for this molecule? COc1cc2nccc(Oc3ccc(NC(=O)NC4CC4)c(Cl)c3)c2cc1C(N)=O
Response line: Condition met

----------
# Test system: P12-Ichikawa
# test.protocol: cell viability relative to DMSO control; higher = less cytotoxic
# assay.context: RPMI 5 mM glucose + 10% FBS; 48 h; 0.0632 µM
recorded.metric: cell viability
Write the figure, then the unit, nothing else.

Past entries and their recorded results:
O=C(Nc1ccc(F)c(C(F)(F)F)c1)Nc1nnc(-c2ccncc2)s1 112%
C[C@]1(c2nc3c(C(N)=O)cccc3[nH]2)CCCN1 82.9%

Let's switch to this compound now.
Prompt line: Entry CNC(=O)c1ccc(N2C(=S)N(c3ccc(C#N)c(C(F)(F)F)c3)C(=O)C23CCC3)cc1F , system P12-Ichikawa: what cell viability was measured?
Response line: 94.9%

----------
# System: SEM cells
# test.protocol: cell viability relative to DMSO control; higher = less cytotoxic
# assay.context: RPMI 5 mM glucose + 10% FBS; 48 h; 0.0632 µM
Consider the following compounds and their measured cell viability readings.
Answer with a number only, understood to be in %.

compound	unit.abbrev	endpoint.value
CC[C@H](C)[N]1C=C(C)C2=C1C=C(C=C2C(=O)NC\C3=C(C)\C=C(\C)NC3=O)C4=CC=C(N=C4)N5CCNCC5	%	113
C[C@@H]1CC[C@H]2[C@@H](C)C(=O)O[C@@H]3O[C@@]4(C)CC[C@@H]1[C@]32OO4	%	109

Prompt line: If you can, please state the reported cell viability value of CC(C)(Oc1ccc(C2CC2(Cl)Cl)cc1)C(=O)O (stereo not given) .
Response line: 101

Prompt line: GET /values?readout=cell viability&item= COC(=O)[C@@H]1[C@H]2C[C@H]3c4[nH]c5ccccc5c4CCN3C[C@@H]2CC[C@@H]1O
Response line: 110

Prompt line: Quick one: cell viability for O=C(O[C@H]1C[C@H]2CC[C@@H](C1)[N+]21CCCC1)C(O)(c1ccccc1)c1ccccc1.[Cl-] ?
Response line: 103

----------
# System: P12-Ichikawa
# test.protocol: cell viability relative to DMSO control; higher = less cytotoxic
# assay.context: RPMI 5 mM glucose + 10% FBS; 48 h; 0.00234 µM
The entries below are paired with their reported cell viability.
Could you give me the number in %? Just the number is fine.

Example results:
compound	unit.abbrev	cell viability
COc1ccc(C2CNC(=O)C2)cc1OC1CCCC1 (stereo not given)	%	106
N[C@H](CSC(c1ccccc1)(c1ccccc1)c1ccccc1)C(=O)O	%	112
CCN1\C=C(\C(O)=O)C(=O)C2=CC=C(C)N=C12	%	82.3
O=C(Nc1ccccc1-c1cn2c(CN3CCNCC3)csc2n1)c1cnc2ccccc2n1	%	85.3

Prompt line: I would be grateful if you could share the reported cell viability for C#C[C@]1(O)CC[C@H]2[C@@H]3CCc4cc(O)ccc4[C@H]3CC[C@@]21C .
Response line: 95.6

Prompt line: State the recorded cell viability for this entry: CN1CCCN=C1/C=C/c1cccs1.O=C(O)c1cc2ccccc2c(Cc2c(O)c(C(=O)O)cc3ccccc23)c1O
Response line: 121

Prompt line: Query: cell viability; subject: CC(C)C[C@H](NC(=O)[C@H](CCc1ccccc1)NC(=O)CN1CCOCC1)C(=O)N[C@@H](Cc1ccccc1)C(=O)N[C@@H](CC(C)C)C(=O)[C@@]1(C)CO1
Response line: 96.3

Prompt line: Suppose we examine the compound Cc1ccc([S+](=O)([O-])N[C@@H](Cc2ccccc2)C(=O)CCl)cc1 ; what cell viability value has been reported?
Response line: 92.4

Prompt line: Tell me the measured cell viability of O=C1c2c(O)ccc(O)c2C(=O)c2c(NCCNCCO)ccc(NCCNCCO)c21 , please.
Response line: 101

Prompt line: Request the reported cell viability associated with CC(N)C12CC3CC(CC(C3)C1)C2 (stereo not given)
Response line: 113

Prompt line: Endpoint output: cell viability of O=C(O)C1=NC(C(=O)O)CC(/C=C/N2c3cc(O)c(OC4OC(CO)C(O)C(O)C4O)cc3CC2C(=O)O)=C1 (stereo not given) . Value?
Response line: 110

Prompt line: # get_value(readout='cell viability', item= Cc1cc2c(F)c(Oc3ncnn4cc(OC[C@@H](C)O)c(C)c34)ccc2[nH]1 )
Response line: 107

Prompt line: Which cell viability is reported for this compound? FC(F)c1nc2ccccc2n1-c1nc(N2CCOCC2)nc(N2CCOCC2)n1
Response line: 104

Prompt line: # query: cell viability of entry COc1cc2ncnc(Nc3cc(Br)c(O)c(Br)c3)c2cc1OC
Response line: 104

Prompt line: Entry CCOC(=O)\C1=C(/C)N\C2=C(C1C3=CC=C(C=C3)C4=CC=CC=C4)\C(=O)CC(C)(C)C2 (stereo not given) : reported cell viability = ?
Response line: 104
